target: T1, hLRRC33-proTGFβ1 (Homo sapiens, UniProt P01137); assay: MSD-SET solution equilibrium titration binding; conditions: MSD-SET at equilibrium, hIgG4, human complex; in M
T1 construct: made in house
T1 sequence (P01137 30-390): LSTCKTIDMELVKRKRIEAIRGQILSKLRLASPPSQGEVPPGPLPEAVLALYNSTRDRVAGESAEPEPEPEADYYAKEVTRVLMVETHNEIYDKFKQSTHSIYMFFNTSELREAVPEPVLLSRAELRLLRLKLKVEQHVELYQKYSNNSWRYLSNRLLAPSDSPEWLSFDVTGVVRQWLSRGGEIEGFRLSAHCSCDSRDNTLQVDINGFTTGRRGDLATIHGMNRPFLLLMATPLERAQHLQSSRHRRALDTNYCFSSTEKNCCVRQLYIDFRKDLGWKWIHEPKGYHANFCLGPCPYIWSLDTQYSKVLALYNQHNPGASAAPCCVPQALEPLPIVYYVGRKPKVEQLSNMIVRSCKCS
T1 sequence (Q86YC3 19-650 partner limits assumed): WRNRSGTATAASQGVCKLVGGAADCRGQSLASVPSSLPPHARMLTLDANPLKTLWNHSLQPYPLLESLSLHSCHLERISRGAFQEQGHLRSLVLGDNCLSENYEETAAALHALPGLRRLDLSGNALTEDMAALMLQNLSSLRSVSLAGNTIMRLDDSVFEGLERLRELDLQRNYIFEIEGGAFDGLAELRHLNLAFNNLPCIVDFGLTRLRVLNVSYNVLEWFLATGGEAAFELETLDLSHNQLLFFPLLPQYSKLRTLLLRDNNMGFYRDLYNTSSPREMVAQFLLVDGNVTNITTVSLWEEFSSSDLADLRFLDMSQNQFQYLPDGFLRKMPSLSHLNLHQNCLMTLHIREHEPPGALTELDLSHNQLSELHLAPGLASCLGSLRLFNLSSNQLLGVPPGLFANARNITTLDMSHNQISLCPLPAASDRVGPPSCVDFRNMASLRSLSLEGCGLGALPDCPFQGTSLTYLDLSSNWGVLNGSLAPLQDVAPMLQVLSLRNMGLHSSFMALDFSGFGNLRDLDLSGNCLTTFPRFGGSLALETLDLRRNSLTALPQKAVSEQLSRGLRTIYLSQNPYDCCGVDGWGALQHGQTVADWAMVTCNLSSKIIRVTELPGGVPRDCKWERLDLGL
quantity: (F) hLRRC33, Cell-associated proTGFβ1 KD
Lab note: record just the number, no unit beside it.

Tell me the measured (F) hLRRC33, Cell-associated proTGFβ1 KD of Ab30: monoclonal antibody; VH SEQ ID NO: 138, VL SEQ ID NO: 15 (antibody, V domains shown) VH: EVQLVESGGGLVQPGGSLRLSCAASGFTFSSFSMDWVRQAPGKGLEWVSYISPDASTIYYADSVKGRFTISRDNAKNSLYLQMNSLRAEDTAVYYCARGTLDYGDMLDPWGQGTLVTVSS VL: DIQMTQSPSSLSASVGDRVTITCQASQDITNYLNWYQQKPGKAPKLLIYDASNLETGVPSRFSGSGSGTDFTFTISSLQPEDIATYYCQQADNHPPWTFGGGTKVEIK , please. 1.40E−10
